- target under test: T1, human GPRC5D (human, UniProt Q9NZD1 1-345)
- T1 construct: on transfected HEK293 or RBL cells, or endogenous on MM1R, H929, OPM2, LP-1, JIM3 and patient plasma cells; also called G-protein coupled receptor family C group 5 member D; hGPRC5D
- T1 sequence (Q9NZD1 whole entry): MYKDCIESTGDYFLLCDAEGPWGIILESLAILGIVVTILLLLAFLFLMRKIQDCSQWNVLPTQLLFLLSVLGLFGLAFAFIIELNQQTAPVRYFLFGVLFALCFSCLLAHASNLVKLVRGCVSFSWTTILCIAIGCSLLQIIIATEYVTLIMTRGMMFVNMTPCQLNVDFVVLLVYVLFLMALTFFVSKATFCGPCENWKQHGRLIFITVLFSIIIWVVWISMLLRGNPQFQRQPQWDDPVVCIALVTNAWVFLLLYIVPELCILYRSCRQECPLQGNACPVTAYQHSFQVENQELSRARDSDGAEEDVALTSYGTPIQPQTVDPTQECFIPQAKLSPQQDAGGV
- assay summary: FACS, human GPRC5D cells

[
  {
    "binder": "GC5B497 (antibody, V domains shown, GC5B164 PTM variant, Hc GC5H252) VH: EVQLVQSGAEVKKPGESLKISCKGSGYSFTSYVIGWVRQMPGKGLEWMGIIYPGDSDTRYSPSFQGQVTISADKSISTAYLQWSSLKASDTAMYYCARVYSFGGRHKALFDYWGQGTLVTVSS VL: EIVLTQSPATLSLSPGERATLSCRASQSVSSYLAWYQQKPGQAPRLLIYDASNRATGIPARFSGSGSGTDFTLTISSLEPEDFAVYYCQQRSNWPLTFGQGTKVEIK",
    "binding result": "binds"
  },
  {
    "binder": "GC5B479 (antibody, V domains shown, GC5B164 PTM variant, Hc GC5H270) VH: EVQLVQSGAEVKKPGESLKISCKGSGYSFTSYGIGWVRQMPGKGLEWMGIIYPGSSDTRYSPSFQGQVTISADKSISTAYLQWSSLKASDTAMYYCARVYSFGGRHKALFDYWGQGTLVTVSS VL: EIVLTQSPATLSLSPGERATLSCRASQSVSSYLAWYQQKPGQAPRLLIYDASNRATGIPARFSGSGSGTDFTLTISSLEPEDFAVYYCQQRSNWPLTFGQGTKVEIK",
    "binding result": "binds"
  },
  {
    "binder": "GC5B505 (antibody, V domains shown, GC5B164 PTM variant, Hc GC5H244) VH: EVQLVQSGAEVKKPGESLKISCKGSGYSFTSYWIGWVRQMPGKGLEWMGIIYPGYSDTRYSPSFQGQVTISADKSISTAYLQWSSLKASDTAMYYCARVYSFGGRHKALFDYWGQGTLVTVSS VL: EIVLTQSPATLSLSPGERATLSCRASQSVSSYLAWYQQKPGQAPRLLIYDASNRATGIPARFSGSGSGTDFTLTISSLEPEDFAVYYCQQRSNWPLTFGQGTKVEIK",
    "binding result": "binds"
  }
]
